The measured values listed here are drawn from patent US20240409645A1.

Would you mind telling me the reported OD (PE binding ELISA) of each entry?
tested target: T1, mouse IL-2Rα (mouse) (UniProt P01590)
T1 sequence (looked up): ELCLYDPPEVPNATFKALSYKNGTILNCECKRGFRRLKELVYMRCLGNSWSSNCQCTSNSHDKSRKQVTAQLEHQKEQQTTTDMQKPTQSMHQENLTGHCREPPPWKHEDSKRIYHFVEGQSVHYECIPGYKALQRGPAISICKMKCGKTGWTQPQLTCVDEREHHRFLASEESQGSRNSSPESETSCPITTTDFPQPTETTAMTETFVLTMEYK
test method notes: ELISA, P.E. on coated antigen
Return type: number; implicit unit OD450 nm.

Notebook: FJ1427_P035MP01F03 (VHH) VHH: QVQLVESGGGLVQPGGSLRLSCAASGFTFSNNFMSWVRQAPGKGLEWVSTISYGGESTTYAESVKGRFTISRDNAKNTLYLQMNNLKPEDTAVYYCAKATSYDSVRSGSRGQGTQVTVSS , OD (PE binding ELISA) read as 0.045

Notebook: FJ1427_P035MP01G07 (VHH) VHH: QVQLVESGGGLVQTGDSLRLSCAASGRSFRNYILAWYRQAPGKEREFLAAISWLDGTLYADSVEGRFTISRDNPKNTVHLQMDSLKPEDTAVYYCAADRGPVRPVLAPDVDYWGQGTQVTVSS , OD (PE binding ELISA) read as 0.047

Notebook: FJ1427_P035MP01D03 (VHH) VHH: EVQLVESGGGLVQPGGSLRLSCATSGFTFRNNFMSWVRQAPGEGLEWVSTISYGGESTTYAESVKGRFTISRDNAKNTLYLQMNNLKPEDTAVYYCAKATSYDSIRSGSRGQGTQVTVSS , OD (PE binding ELISA) read as 0.048

Notebook: 5-MP01F05 (VHH) VHH: EVQLVESGGGLVQAGGSLRLSCAASIRAFTTWSMAWFRQAPGKEREYVARINVSGSVTYYADFVKGRFTISRDNAKKTMYLEMNNLKPEDTALYYCAADRTGVGTNDYNYWGQGTQVTVSS , OD (PE binding ELISA) read as 0.046

Notebook: FJ1427_P035MP01H02 (VHH) VHH: QLQLVESGGGLVQAGDSLRLSCAASGRAFSRYAVGWFRMAPGKGREFVSAINSSGANTYVLDSVKGRFTISRDNDKNTAYLQMDSLQPEDTAVYWCAATSSSYSTYEANYNVWGQGTQVTVSS , OD (PE binding ELISA) read as 0.047

Notebook: FJ1427_P035MP01H05 (VHH) VHH: EVQLVESGGGLVQPGGSLRLSCAASGFTFSNNFMSWVRQAPGKGLEWVSTISYFGDSTTYAESVKGRFTISRDNAKNTLYLQMNNLKPEDTAVYYCAKATSYDSIRSGSRGRGTQVTVSS , OD (PE binding ELISA) read as 0.046

Notebook: 8-MP01C12 (VHH) VHH: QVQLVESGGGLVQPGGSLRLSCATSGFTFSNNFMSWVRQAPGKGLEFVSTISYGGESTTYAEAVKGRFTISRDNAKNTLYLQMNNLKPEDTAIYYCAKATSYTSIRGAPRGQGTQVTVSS , OD (PE binding ELISA) read as 0.045

Notebook: FJ1427_P035MP01E05 (VHH) VHH: QVQLVESGGGLVQAGGSLRLSCAASGRTFRTHNMGWFRRAPGEEREFVAVISWNVDNKLYADSVKGRFTISRDNGRNMVYLQMNSLKPEDTAVYYCAADNIPLSSDVRATATEFGYWGQGTQVTVSS , OD (PE binding ELISA) read as 0.046
